FYI, the data here is from ChEMBL document CHEMBL1150273.

Quick reference: IC50 of the listed items.
# method-notes: Inhibition of Ixodes ricinus AE expressed in Pichia pastoris after 20 mins
property-label: IC50 (nM)

{"columns": ["input-smiles", "observed-result"],
 "data": [
  ["C[C@H](NC(=O)OCc1ccccc1)C(=O)N[C@@H](C)C(=O)NN(CC(N)=O)C(=O)/C=C/C(=O)N(Cc1ccco1)Cc1ccco1", 15000],
  ["C[C@H](NC(=O)OCc1ccccc1)C(=O)N[C@@H](C)C(=O)NN(CC(N)=O)C(=O)/C=C/C(=O)NCc1ccccc1", 200],
  ["CCOC(=O)/C=C/C(=O)N(CC(N)=O)NC(=O)[C@H](C)NC(=O)[C@H](C)NC(=O)CCCC[C@@H]1SC[C@@H]2NC(=O)N[C@@H]21", 2.8],
  ["C[C@H](NC(=O)OCc1ccccc1)C(=O)N[C@@H](C)C(=O)NN(CC(N)=O)C(=O)/C=C/C(=O)N(C)c1ccccc1", 1.8],
  ["C[C@H](NC(=O)OCc1ccccc1)C(=O)N[C@@H](C)C(=O)NN(CC(N)=O)C(=O)/C=C/C(=O)N1CCc2ccccc21", 18],
  ["C[C@H](NC(=O)OCc1ccccc1)C(=O)N[C@@H](C)C(=O)NN(CC(N)=O)C(=O)/C=C/c1cccnc1", 15000],
  ["CCCCN(CCCC)C(=O)/C=C/C(=O)N(CC(N)=O)NC(=O)[C@H](C)NC(=O)[C@H](C)NC(=O)OCc1ccccc1", 100]
]}
